Assay: viability loss in pontine glioma line – cell-based, SU-DIPG-XXV, MIPE5.0, CellTiter-Glo, qHTS, dose response (AID 1347065);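 also: cells exposed to compound for 48 hours before ATP readout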
Settings: CellTiter-Glo ATP luminescence
Records with an inconclusive call do not appear. Calls of active or inactive are those of the source. The limit is not given here; nearly all actives have AC50 up to about 26 µM.
Value Kind: AC50

// worked examples, AC50 included
> print(dat)
                                   compound  value.kind         test.result
1  Cc1ccc(-n2nc(C(C)(C)C)cc2NC(=O)Nc2ccc(OCCN3CCOCC3)c3ccccc23)cc1        AC50            inactive
2  CCS(=O)(=O)Nc1ccc2[nH]c(O)c(C(=Nc3ccc(CN4CCCCC4)cc3)c3ccccc3)c2c1        AC50  0.0833 µM (active)
3  NCCCC(N)(C(=O)O)C(F)F (stereo unspecified)        AC50            inactive
4  CC(C)(C)C(=O)OCOP(=O)(COCCn1cnc2c(N)ncnc21)OCOC(=O)C(C)(C)C        AC50    20.9 µM (active)

Problem: GET /values?readout=AC50&item= CCC(c1ccc(O)cc1)C(CC)c1ccc(O)cc1 (stereo unspecified)
Result: inactive

Problem: What AC50 value was documented for this compound, `C=C1CC[C@@H]2[C@](C)(CO)[C@H](O)CC[C@@]2(C)[C@@H]1C/C=C1/C(=O)OC[C@H]1O` ?
Result: 11.8 µM (active)

###

Molecular target: Mitogen-activated protein kinase 7 (Homo sapiens)
Assay: ERK5 transactivation activators in reporter cells, primary screen, cell-based, HTS (AID 1508626);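 also: luciferase driven by Gal4-ERK5 fusion binding five Gal4 sites before minimal TATA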
Settings: HeLa Gal4-ERK5 transactivation, 18 h, at 5 µM, stronger effect = higher value
The source made the active and inactive calls.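 The calls were made as follows: active = luciferase signal above three times the same-plate solvent-only control wells; inactive = the rest.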
Value Kind: luciferase signal

// worked examples, luciferase signal included
> print(dat)
                               compound        test.result
1     CCOc1cccc(C(=O)c2ccc(O)c(O)c2O)c1  116 AU (inactive)
2  CC(C)(C)NC[C@H](O)COc1cccc2c1CCCC2=O   88 AU (inactive)
3             COc1c2occc2cc2ccc(=O)oc12   24 AU (inactive)
4     O=c1cc(-c2ccccc2)oc2c(O)c(O)ccc12   32 AU (inactive)

Problem: Return luciferase signal measured with Mitogen-activated protein kinase 7 (Homo sapiens) given this compound: COCCCOc1ccnc(CS(=O)c2nc3ccccc3[nH]2)c1C (stereo not given)
Result: 200 AU (inactive)

###

Assay: survival rescue of mitochondrial mutant cells in low glucose, primary screen, MELAS cybrids, Rieske KO mouse fibroblasts, CellTiter-Glo (AID 1508586);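 also: z relative to plate mean and SD of compound and empty wells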
Details: MELAS cybrid survival, CellTiter-Glo 48 h, stronger effect = higher value
# key: entry, value: z-score
I'd appreciate a reply containing only the number, no unit.

Solved entries (count: 5):
> print(dat)
                                   compound  value.kind  test.result
1  CC(C)NCC(O)COc1ccc(CC(N)=O)cc1 (configuration not stated)     z-score         -0.4
2  C[C@]1(Cn2ccnn2)[C@H](C(=O)O)N2C(=O)C[C@H]2S1(=O)=O     z-score       -0.126
3  CC[C@H](c1ccc(O)cc1)[C@@H](CC)c1ccc(O)cc1     z-score         -1.4
4  CC(Oc1ccccc1)C(=O)N[C@@H]1C(=O)N2[C@@H]1SC(C)(C)[C@@H]2C(=O)O (some centres not stated)     z-score       -0.192
5  O=C(CCCN1CCC(O)(c2cccc(C(F)(F)F)c2)CC1)c1ccc(F)cc1     z-score       -0.508

Problem: Need z-score of `C[C@H]1C[C@H]2[C@@H]3CCC4=CC(=O)C=C[C@]4(C)[C@@]3(F)[C@@H](O)C[C@]2(C)[C@@]1(O)C(=O)CO` , thanks.
Result: -0.582

Problem: Entry `CC(C)c1c(C(=O)Nc2ccccc2)c(-c2ccccc2)c(-c2ccc(F)cc2)n1CC[C@@H](O)C[C@@H](O)CC(=O)O` has what z-score?
Result: -2.11

Problem: // query z-score value for entry `Clc1cc(Cl)c(OCC#CI)cc1Cl`
Result: -0.965

Problem: Give the measured z-score of `CN(C(=O)CN(CCO)CC(=O)N(C)C(C)(C)Cc1ccccc1)C(C)(C)Cc1ccccc1` .
Result: 0.165

Problem: Quick check: z-score of CC(CN(C)C)CN1c2ccccc2Sc2ccccc21 (configuration not stated) ?
Result: 0.461

Problem: I'd like to know its z-score. The compound in question is CC(C(=O)O)c1ccc(N2Cc3ccccc3C2=O)cc1 (configuration not stated)
Result: 0.44

Problem: What does the data say about its z-score? Entry: `CN(C)CC/C=C1\c2ccccc2Sc2ccc(Cl)cc21`
Result: 0.287

Problem: Which value of z-score has been reported for `CCOC(=O)Nc1ccc(NCc2ccc(F)cc2)nc1N` in the records?
Result: -0.196

###

Experiment: inhibition of endothelial tube formation, primary screen, imaging, VEGF stimulated, CD31 staining, tube area, NPC library (AID 1117340)
Conditions: VEGF-stimulated ADSC/ECFC co-culture, at 10 µM, stronger effect = higher value
Value Kind: tube area decrease (%)
Expressed in %, but write only the number.

Known tube area decrease results, listed for orientation:
> print(dat)
                                   compound  test.result
1  CC(=O)CC(c1ccc([N+](=O)[O-])cc1)c1c(O)c2ccccc2oc1=O (configuration not stated)        -40.9
2  COc1nc(N)nc2c1ncn2[C@@H]1O[C@H](CO)[C@@H](O)[C@@H]1O          5.7
3  COc1cc(N)c(Cl)cc1C(=O)NC1CCN(CCCOc2ccc(F)cc2)CC1OC (configuration not stated)         -0.4
4                            NC(=O)c1cccnc1         -7.9
5                       Nc1cc(=O)[nH]c(N)n1        -14.1
6  C[C@]12CC[C@@H]3c4ccc(O)cc4C[C@@H](CCCCCCCCCS(=O)CCCC(F)(F)C(F)(F)F)[C@H]3[C@@H]1CC[C@@H]2O (some centres not stated)         16.2
7  CC(C)C[C@H](NC(=O)[C@H](Cc1ccccc1)NC(=O)c1cnccn1)B(O)O          107
8  CC(C)(C)CC(C)(C)c1cc(Cc2cc(C(C)(C)CC(C)(C)C)cc(-n3nc4ccccc4n3)c2O)c(O)c(-n2nc3ccccc3n2)c1        -10.3

Please find the next compound below.
Problem: I'd like to know its tube area decrease. The compound in question is `COc1cc(Nc2c(C#N)cnc3cc(OCCCN4CCN(C)CC4)c(OC)cc23)c(Cl)cc1Cl`
Result: 1.5

###

Assay: ovarian cancer cell viability with rucaparib, profiling panel, oncology-focused library, rucaparib conditional (AID 1508598)
Details: patient-derived ovarian cancer cells, CellTiter-Glo viability, 144 h; at 1.25 µM; OCI-P5x cells; with rucaparib 20 µM; stronger effect = lower value; 100% = cells with rucaparib alone
Value Kind: viability (%)
// units = %; emit number, no label

> print(dat)
                        cpd.smiles  test.result
1  O=c1[nH]c(=O)n([C@H]2CCCO2)cc1F         97.8

Problem: Which measured viability value corresponds to `Nc1ncn([C@H]2C[C@H](O)[C@@H](CO)O2)c(=O)n1` ?
Result: 68.8

###

Experiment: SU-DIPG-XXV glioma cell viability, MIPE5.0 library, qHTS (AID 1347068);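 as to IC50: cells exposed to compound for 48 hours before viability readout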
Records with an inconclusive call do not appear. Activity calls are given as the source filed them. Cut-off not given; nearly all actives show IC50 up to about 30 µM.
The reply should name one outcome from active, inactive

See these solved cases before continuing.
> print(dat)
                                   compound     label
1  CCS(=O)(=O)Nc1ccc2[nH]c(O)c(C(=Nc3ccc(CN4CCCCC4)cc3)c3ccccc3)c2c1    active
2  CCC(c1ccc(O)cc1)C(CC)c1ccc(O)cc1 (centres undefined)  inactive
3                  Clc1ccccc1CN1CCc2sccc2C1  inactive
4        COc1cc(CNC(=O)CCCC/C=C/C(C)C)ccc1O  inactive
5   COc1ccc(/C=C/C(=O)Nc2ccccc2C(=O)O)cc1OC  inactive
6             O=[N+]([O-])c1cncn1CCN1CCOCC1  inactive
7  CCCS(=O)c1ccc2nc(NC(=O)OC)[nH]c2c1 (centres undefined)  inactive
8         O=C(O)C(=O)Nc1cccc(-c2nn[nH]n2)c1  inactive

Problem: Please state the recorded outcome for this compound: Clc1cccc(C(c2ccc3nc[nH]c3c2)n2ccnc2)c1 (centres undefined)
Result: inactive

Problem: Recorded call for `CN(N=O)C(=O)N[C@@H]1[C@@H](O)[C@H](O)[C@@H](CO)O[C@@H]1O` ?
Result: inactive
